- System: WaGa
- ASSAY_COMMENT: qHTS assay to identify novel small-molecules to repurpose for Merkel cell carcinoma treatment (AID 1296009); also: nearly all actives have a fitted effect of over 60% in size; also: potency is read from the fitted curve at half-maximal effect
- ASSAY_CONDITIONS: MCC and control cell lines, CellTiter-Glo viability, 72 h; series mostly up to 46 µM
Inconclusive results are not listed. Calls of active or inactive are those of the source. Calls follow the shape of the dose curve; as a rule, active = well fitted inhibition curve with a large enough effect; inconclusive = small, poorly fitted or top-dose-only effect; inactive = flat fitted curve, though single readings scatter.
MEASURED_ATTRIBUTE: Potency

Observe how each entry below is paired with its result.
>  <COMPOUND>
COc1cc(/C=C/C(=O)O[C@H]2CC[C@]34C[C@]35CC[C@]3(C)[C@@H]([C@H](C)CCC=C(C)C)CC[C@@]3(C)[C@@H]5CC[C@H]4C2(C)C)ccc1O

>  <MEASURED_ATTRIBUTE>
Potency

>  <EXPERIMENTAL_VALUE>
inactive

$$$$
>  <COMPOUND>
CN=C(NC#N)NCCSCc1csc(N=C(N)N)n1

>  <MEASURED_ATTRIBUTE>
Potency

>  <EXPERIMENTAL_VALUE>
inactive

$$$$
>  <COMPOUND>
C=C(CC)C(=O)c1ccc(OCC(=O)O)c(Cl)c1Cl

>  <MEASURED_ATTRIBUTE>
Potency

>  <EXPERIMENTAL_VALUE>
13.3 µM (active)

$$$$
>  <COMPOUND>
COc1cccc2c1C(=O)c1c(O)c3c(c(O)c1C2=O)C[C@@](O)(C(C)=O)C[C@@H]3O[C@H]1C[C@H](N)[C@H](O)[C@H](C)O1

>  <MEASURED_ATTRIBUTE>
Potency

>  <EXPERIMENTAL_VALUE>
0.0237 µM (active)

$$$$
>  <COMPOUND>
Oc1ccc(Cl)cc1Sc1cc(Cl)ccc1O

>  <MEASURED_ATTRIBUTE>
Potency

>  <EXPERIMENTAL_VALUE>
21.1 µM (active)

$$$$
>  <COMPOUND>
CO/N=C1\CN(c2nc3c(cc2F)c(=O)c(C(=O)O)cn3C2CC2)CC1CN (centres undefined)

>  <MEASURED_ATTRIBUTE>
Potency

>  <EXPERIMENTAL_VALUE>
inactive

$$$$
>  <COMPOUND>
Cc1nc2n(c(=O)c1CCN1CCC(c3noc4cc(F)ccc34)CC1)CCC[C@H]2O

>  <MEASURED_ATTRIBUTE>
Potency

>  <EXPERIMENTAL_VALUE>
inactive

$$$$
>  <COMPOUND>
CCN(CC)C(=O)N1CCN(C)CC1

>  <MEASURED_ATTRIBUTE>
Potency

>  <EXPERIMENTAL_VALUE>
inactive

$$$$

Now take the following compound into account.
Endpoint output: Potency of NCCC(O)(P(=O)(O)O)P(=O)(O)O . Value?
inactive

###

- ASSAY_COMMENT: qHTS of pediatric cancer cell lines to identify multiple opportunities for drug repurposing: Primary screen for BT-37 cells (AID 1347094)
- ASSAY_CONDITIONS: BT-37 viability, CellTiter-Glo luminescence, 48 h; series mostly up to 57.3 µM
Results filed as inconclusive are left out. The source made the active and inactive calls. Calls follow the shape of the dose curve; as a rule, active = well fitted cell-killing curve with a large enough effect; inconclusive = small, poorly fitted or top-dose-only effect; inactive = flat fitted curve, though single readings scatter.
MEASURED_ATTRIBUTE: Potency

>  <COMPOUND>
CCCSS/C(CCO)=C(\C)N(C=O)Cc1cnc(C)nc1N

>  <EXPERIMENTAL_VALUE>
inactive

$$$$
>  <COMPOUND>
CCCCCCc1ccc(O)cc1O

>  <EXPERIMENTAL_VALUE>
inactive

$$$$
>  <COMPOUND>
O=c1[nH]c(=O)n([C@H]2CCCO2)cc1F

>  <EXPERIMENTAL_VALUE>
inactive

$$$$
>  <COMPOUND>
CCCCC(=O)O[C@]1(C(=O)CO)CC[C@H]2[C@@H]3CCC4=CC(=O)CC[C@]4(C)[C@H]3[C@@H](O)C[C@@]21C

>  <EXPERIMENTAL_VALUE>
inactive

$$$$
>  <COMPOUND>
CN(C)CC/C=C1/c2ccccc2COc2ccc(CC(=O)O)cc21

>  <EXPERIMENTAL_VALUE>
inactive

$$$$

Next, consider the following compound.
Please report the recorded Potency for CC(O)C(=O)O (configuration not stated) .
inactive
